List of pKi tested on Cannabinoid receptor 1 (Taricha granulosa).
Sequence (Q9PUI7 whole entry): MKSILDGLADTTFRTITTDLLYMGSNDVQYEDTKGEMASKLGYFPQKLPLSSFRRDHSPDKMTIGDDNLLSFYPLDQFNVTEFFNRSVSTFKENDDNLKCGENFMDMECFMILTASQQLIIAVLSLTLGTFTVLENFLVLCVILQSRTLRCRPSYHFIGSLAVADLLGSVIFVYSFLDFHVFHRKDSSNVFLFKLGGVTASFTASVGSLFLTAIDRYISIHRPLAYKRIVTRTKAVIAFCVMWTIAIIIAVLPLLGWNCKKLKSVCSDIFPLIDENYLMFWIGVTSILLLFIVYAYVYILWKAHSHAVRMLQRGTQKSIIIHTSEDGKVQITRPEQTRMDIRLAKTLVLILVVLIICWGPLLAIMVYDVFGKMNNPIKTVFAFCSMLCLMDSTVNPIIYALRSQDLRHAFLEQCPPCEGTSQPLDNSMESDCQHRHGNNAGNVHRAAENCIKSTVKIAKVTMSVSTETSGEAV
Quick note: pKi values are minus log10 of concentrations in mol/L.

Worked cases, pKi given:
| COMPOUND | EXPERIMENTAL_TARGET | pKi |
| --- | --- | --- |
| CCCCCCC(C)(C)c1ccc([C@H]2C[C@@H](O)CC[C@@H]2CCCO)c(O)c1 [CP-56667 [(+)-AC],XV] | Cannabinoid receptor 1 (Taricha granulosa) | 8.42 |
| CC(=O)Oc1cc(OC(C)CCCc2ccccc2)cc2c1C1CC(O)CCC1C(C)N2 (centres undefined) [NSC_107822] | Cannabinoid receptor 1 (Taricha granulosa) | 7.89 |
| CCCCC/C=C\C/C=C\C/C=C\C/C=C\CCCCCC(=O)NCCO | Cannabinoid receptor 1 (Taricha granulosa) | 5.62 |

Kindly consider the entry below.
Ask: Would you mind telling me what pKi value was observed for Cc1c(C(=O)c2cccc3ccccc23)c2cccc3c2n1[C@H](CN1CCOCC1)CO3 [WIN55212-2] ?
Result: 7.59
